- Test system: uninfected H9 cells
- EXPERIMENTAL_DETAILS: Toxicity to mock-infected H9 cells
- Assay type: cell-based
- STATED_CONDITIONS: human, mock-infected (uninfected) H9 T-cells
PROPERTY: IC50 at 6 days

Please fill in: IC50 at 6 days reported for Cc1cc(=O)oc2c3c(ccc12)OC(C)(C)[C@H](OC(=O)[C@]12CC[C@](C)(C(=O)O1)C2(C)C)[C@@H]3OC(=O)[C@]12CC[C@](C)(C(=O)O1)C2(C)C [Compound 2] = > 39.2 µM
